- procedure-details: Hemolytic activity against Red blood cells (unknown origin) incubated for 1 hr by spectrophotometric analysis
- Assay type: toxicity, cell-based, Erythrocyte
Square brackets hold non-standard residues; d marks the D form. Peptide text beside a SMILES is read from it. 2Nal = N[C@@H](Cc1ccc2ccccc2c1)C(=O)O; Cha = N[C@@H](CC1CCCCC1)C(=O)O
Assignment: determine reported HC50 at 1 h for the given compounds.
Answer with a number only, understood to be in µM.

Quick one: HC50 at 1 h for CC[C@H](C)[C@H](NC(=O)[C@H](CCCCN)NC(=O)[C@H](CCCCN)NC(=O)[C@H](CC(C)C)NC(=O)[C@H](CC1CCCCC1)NC(=O)CN)C(=O)N[C@@H](CCCCN)C(=O)N[C@@H](CCCCN)C(=O)N[C@@H](CC(C)C)C(=O)N[C@@H](CC1CCCCC1)C(N)=O (H-G[Cha]LKKIKKL[Cha]-NH2) ?
0.5

Param item: CC(C)C[C@H](NC(=O)[C@H](CC(C)C)NC(=O)[C@H](CCCCN)NC(=O)[C@H](CCCCN)NC(=O)[C@H](Cc1ccc2ccccc2c1)NC(=O)[C@H](CCCNC(=N)N)NC(=O)[C@H](CCCCN)NC(=O)[C@H](CC(C)C)NC(=O)[C@H](CCCCN)NC(=O)CN)C(N)=O (H-GKLKR[2Nal]KKLL-NH2)
50.1

Measured values drawn from ChEMBL document CHEMBL5608163 for this set.
